In this section we review reported IC50, Thiofiavin T aggregation assay values for a set of binders.
# subjectOfTest: T1, Nat1 (LTIITLE) (also: TFA salt)
# T1 peptide: LTIITLE
# protocolDescription: cell-based or functional assay
Non-standard residues stand in square brackets, D forms with d. No end group written: not given here. Chg = N[C@H](C(=O)O)C1CCCCC1
Report the figure in nM without appending any unit label.

For orientation, consider the following solved cases.
LRIRRYR = 76
IRFRRYR = 496
[Chg]R[Chg]RRYR [Chg-Arg-Chg-Arg-Arg-Tyr-Arg] = 67

Provide measured IC50, Thiofiavin T aggregation assay value, entry: LHIEHR
657

FYI, the data here is from patent US20200062804A1.
